biological target: T1, human PCSK9 (PCSK9 antigen, SEQ ID NO. 53) (human, UniProt A8T644 31-152; Q8NBP7 153-692, Biotin-labelled on amines in the MSD-SET and sorting experiments; positions not given.); test: flow cytometry, PCSK9 left on CHO-LDLR cells (anti-His-FITC) after premix with 1 nM antibody
T1 construct: Biotin-labelled in MSD-SET; also called PCSK9-WT; PCSK9 protein
Property measured: Fluorescence Signal Value
Lab note: jot down the number only; don't add units.

Recorded Fluorescence Signal Value, per entry:
## Task Given the entry Bococizumab (antibody, V domains shown) VH: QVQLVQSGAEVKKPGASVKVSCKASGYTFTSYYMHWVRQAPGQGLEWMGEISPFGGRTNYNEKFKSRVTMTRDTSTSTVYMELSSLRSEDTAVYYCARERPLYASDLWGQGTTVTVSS VL: DIQMTQSPSSLSASVGDRVTITCRASQGISSALAWYQQKPGKAPKLLIYSASYRYTGVPSRFSGSGSGTDFTFTISSLQPEDIATYYCQQRYSLWRTFGQGTKLEIK , report its measured Fluorescence Signal Value.
## Result 6960

## Task Given the entry Lodelcizumab (antibody, V domains shown) VH: QVQLVQSGAEVKKPGASVKVSCKASGYTFSTMYMSWVRQAPGQGLEWMGRIDPANEHTNYAQKFQGRVTMTRDTSISTAYMELSRLTSDDTAVYYCARSYYYYNMDYWGQGTLVTVSS VL: QIVLTQSPATLSVSPGERATLSCRASQSVSYMHWYQQKPGQAPRLLIYGVFRRATGIPDRFSGSGSGTDFTLTIGRLEPEDFAVYYCLQWSSDPPTFGQGTKLEIK , report its measured Fluorescence Signal Value.
## Result 8760

## Task Given the entry ADI-10088 (antibody, human IgG2, kappa, V domains shown, IgG) VH: QLQLQESGPGLVKPSETLSLTCTVSGGSIGSSSYYWAWIRQPPGKGLEWIGSINYRGSTYYNPSLKSRVTISVDTSKNQFSLKLSSVTAADTAVYYCARENSGVVPAAGPNWFDPWGQGTLVTVSS VL: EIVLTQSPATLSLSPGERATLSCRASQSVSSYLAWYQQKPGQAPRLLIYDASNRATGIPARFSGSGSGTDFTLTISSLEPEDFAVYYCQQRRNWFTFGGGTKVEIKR , report its measured Fluorescence Signal Value.
## Result 6830

## Task Given the entry ADI-10090 (antibody, human IgG2, kappa, V domains shown, IgG) VH: QLQLQESGPGLVKPSETLSLTCTVSGGSIWSSSYYWTWIRQPPGKGLEWIGSINYRGSTYYNPSLKSRVTISVDTSKNQFSLKLSSVTAADTAVYYCARENSGVVPAAGPNWFDPWGQGTLVTVSS VL: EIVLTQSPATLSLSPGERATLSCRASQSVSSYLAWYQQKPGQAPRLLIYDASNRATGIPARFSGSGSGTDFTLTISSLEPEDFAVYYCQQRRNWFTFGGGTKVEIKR , report its measured Fluorescence Signal Value.
## Result 6750

## Task Given the entry ADI-10089 (antibody, human IgG2, kappa, V domains shown, IgG) VH: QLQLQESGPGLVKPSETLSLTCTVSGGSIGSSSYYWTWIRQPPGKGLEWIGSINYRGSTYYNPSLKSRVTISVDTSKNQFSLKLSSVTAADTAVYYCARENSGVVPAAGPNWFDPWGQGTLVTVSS VL: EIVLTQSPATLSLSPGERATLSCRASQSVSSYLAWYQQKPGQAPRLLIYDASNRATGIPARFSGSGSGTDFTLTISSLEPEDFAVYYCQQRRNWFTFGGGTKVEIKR , report its measured Fluorescence Signal Value.
## Result 6500

Further cases:
## Task Given the entry ADI-10085 (antibody, human IgG2, kappa, V domains shown, IgG) VH: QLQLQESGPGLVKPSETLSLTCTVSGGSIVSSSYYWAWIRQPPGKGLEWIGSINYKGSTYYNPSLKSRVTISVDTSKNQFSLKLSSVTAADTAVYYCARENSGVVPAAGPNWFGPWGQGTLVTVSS VL: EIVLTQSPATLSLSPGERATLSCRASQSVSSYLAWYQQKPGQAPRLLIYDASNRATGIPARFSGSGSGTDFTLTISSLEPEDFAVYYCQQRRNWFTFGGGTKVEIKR , report its measured Fluorescence Signal Value.
## Result 8910
